# Test system: COLO 205 colon
# Assay method text: NCI tumour cell line growth inhibition, 48 h
GI50 reference

Some solved entries appear below for comparison.
C=CC(=O)N1CCN(c2nc(OC[C@@H]3CCCN3C)nc3c(F)c(-c4nc(N)cc(C)c4C(F)(F)F)c(Cl)cc23)[C@@H](C)C1; 1860 nM
COc1ccc(C(=O)c2no[n+]([O-])c2C(=O)c2ccc(OC)cc2)cc1; 1770 nM
O=C(N/N=C/c1coc2ccc(Cl)cc2c1=O)c1cc(O)c(O)c(O)c1; 55700 nM
O=C(NCCc1nccs1)c1cnc2c(S)cccc2c1; 1560 nM

Notebook: O=C(Nc1cccc2[nH]c(C(F)(F)F)nc12)c1ccc(Br)cc1F , GI50 read as 2630 nM

Memo: C[C@H]1CCC/C=C/[C@@H]2C[C@H](O)C[C@H]2[C@H](O)C(O)C(O)C(=O)O1 (stereo partly specified) , reported GI50: 4070 nM

---

# Tested on: NCI-H226 lung
# Assay method text: NCI tumour cell line growth inhibition, 48 h
Assay endpoint: TGI

Reference set, count: 3
CC(Oc1ccc(Cl)cc1Cl)C(=O)NN1C(=O)CC(=O)NC1=S (centres undefined); > 100 µM
CC1=NN(c2ccccc2Cl)C2(C1)C(Cl)C(=O)N2c1nc2ccccc2s1 (centres undefined); > 100 µM
COc1ccc(/C=C2\CC3C4CC=C5C[C@@H](N6CCCC6)CC[C@]5(C)C4CC[C@]3(C)[C@H]2O)cc1OC (some centres undefined); 20.2 µM

# TGI (molecule: C[C@H]1CCC/C=C/[C@@H]2C[C@H](O)C[C@H]2[C@H](O)C(O)C(O)C(=O)O1 (some centres undefined) ) is 0.399 µM

TGI for CC(C)(C)C1CC[C@H](O)[C@H]([C@@H](O)CC2CC(=O)N(c3ccccc3)C(=O)C2)C1 (some centres undefined) is > 100 µM

Lookup result for COc1ccc2[nH]c(=O)cc(C)c2c1[N+](=O)[O-] ; measured TGI: > 100 µM

Short answer for CC1=C(C(=O)Nc2cc(F)c(F)cc2F)C(c2ccc(N(C)C)cc2)C(C(=O)Nc2cc(F)c(F)cc2F)=C(C)N1 : TGI was > 92.9 µM

Memo: CCOc1ccc(NC(=O)/C=C/c2ccco2)cc1 , reported TGI: > 100 µM

Short answer for O=C(O)c1cc(-c2ccc3cc(O)c(O)cc3c2)ccc1O : TGI was > 12.5 µM

---

This section presents molecules with their documented TGI values.
# Test system: HOP-62 NSCLC
# Assay method text: NCI tumour cell line growth inhibition, 48 h
Quick reminder: number only, in µM, skip the unit.

O=C1c2c[n+](Cc3ccccc3)ccc2-c2nc3ccccc3c3ccnc1c23; 0.817

TGI of CN(C)Cc1cc(C(=O)/C=C/c2ccc(Cl)cc2Cl)cc(CN(C)C)c1O , assay on HOP-62 NSCLC, is 12.9

Short answer on HOP-62 NSCLC for Nc1ccc(C(=O)NN2C(=O)C(Cl)C2c2ccc(O)cc2)cc1 (configuration not stated) , TGI: 38.4

Recorded TGI for O=C(CC(=O)n1nc(-c2ccccc2)c(N=Nc2ccc([N+](=O)[O-])cc2)c1-c1ccccc1)Nc1ccc(Cl)cc1 on HOP-62 NSCLC was 42.7

---

# Test system: PC-3 prostate
# Assay method text: NCI tumour cell line growth inhibition, 48 h
Assay endpoint: TGI (µM)
Reply with just the number (in µM).

O=C1c2c[n+](Cc3ccccc3)ccc2-c2nc3ccccc3c3ccnc1c23; 3.92

Record for CN1CC[C@@]2(c3cccc(O)c3)CC(=O)/C(=C/c3ccc(Cl)c(Cl)c3)[C@H]1C2 under target or system PC-3 prostate: TGI reported as 3.07

CN(C)Cc1cc(C(=O)/C=C/c2ccc(Cl)cc2Cl)cc(CN(C)C)c1O tested on PC-3 prostate gave TGI: 6.19

So the reported TGI for C1=C(c2ccccc2)NC2=N[C@H]3CCCC[C@@H]3N2C1c1ccccc1 (some centres undefined) , on PC-3 prostate, turned out to be 23.9

TGI on PC-3 prostate for COc1cc2c(/C=C3/C(=O)Nc4cc(C)c(O)cc43)c(Cl)[nH]c2cc1C is 21.9

# value of TGI, PC-3 prostate, item C[C@]12CC/C(=N\OCCN3CCCC3)C=C1CCC1C2CC[C@@]2(C)C1CC[C@]2(C)O (some centres undefined) = 71.7

Lab entry: PC-3 prostate assay, molecule Cc1cc(N)c2cc(NC(=O)/C=C\c3ccccc3Cl)ccc2n1 , TGI = 2.84

Log: PC-3 prostate, molecule COc1cccc2c1C(=O)c1c(O)c3c(c(O)c1C2=O)C[C@@](O)(C(=O)CO)C[C@@H]3OC1CC2C(OCN2CN2COC3C(C)OC(O[C@H]4C[C@](O)(C(=O)CO)Cc5c(O)c6c(c(O)c54)C(=O)c4c(OC)cccc4C6=O)CC32)C(C)O1 (some centres undefined) , TGI = 0.0896

TGI on PC-3 prostate for Cc1nc2ccccc2c(/C=C/c2ccc(C(F)(F)F)cc2)c1C(=O)/C=C/c1ccccc1 is 3.17

Where do the numbers come from? From PubChem BioAssay (NCI).
